# System: human lung cancer strain NCI-H441
# Type: cell-based
pIC50: −log10 of the molar value. Where a SMILES comes first, the peptide text is derived from it. Bridges are numbered along the chain shown (N, C = ends). [ ]: non-standard residue; d: D form. The star is where a group is joined. hPhe(3-Cl-4-CF3) = N[C@@H](CCc1ccc(C(F)(F)F)c(Cl)c1)C(=O)O; NEtPhe(4-Me) = CCN[C@@H](Cc1ccc(C)cc1)C(=O)O; NMeGly(cPent) = CN[C@H](C(=O)O)C1CCCC1; Hyp = O=C(O)[C@@H]1C[C@@H](O)CN1; NMeD = CN[C@@H](CC(=O)O)C(=O)O; NMeL = CN[C@@H](CC(C)C)C(=O)O; Morpholide = C1CN(*)CCO1; NMeA = CN[C@@H](C)C(=O)O; Ac5c = NC1(C(=O)O)CCCC1; Aze = O=C(O)[C@@H]1CCN1; Sar = CNCC(=O)O
recorded endpoint: pIC50

CC[C@H](C)[C@@H]1NC(=O)[C@H](CC(C)C)N(C)C(=O)C[C@@H](C(=O)N2CCOCC2)N(C)C(=O)[C@H](C2CCCC2)N(C)C(=O)C2(CCCCC2)NC(=O)[C@@H]2CCCN2C(=O)[C@H](CCc2cc(F)c(C(F)(F)F)c(F)c2)NC(=O)CN(C)C(=O)[C@H](Cc2ccc(C(F)(F)F)cc2)N2CCCC[C@@H](C2=O)N(C)C(=O)CN(C)C1=O ... 7.68
CCO[C@@H]1C[C@H]2C(=O)NC3(CCCC3)C(=O)N(C)[C@@H](C3CCCC3)C(=O)N(C)[C@H](C(=O)N3CCOCC3)CC(=O)N(C)[C@@H](CC(C)C)C(=O)N[C@@H]([C@@H](C)CC)C(=O)N(C)[C@@H](C)C(=O)N3CC[C@H]3C(=O)N(CC)[C@@H](Cc3ccc(C)cc3)C(=O)N(C)CC(=O)N[C@@H](CCc3ccc(C(F)(F)F)c(Cl)c3)C(=O)N2C1 [PP0014] ([NMeL]I[NMeA][Aze][NEtPhe(4-Me)][Sar][hPhe(3-Cl-4-CF3)][Hyp](Et)[Ac5c][NMeGly(cPent)][NMeD]-Morpholide; lactam N-11) ... 8.70
CC[C@H](C)[C@@H]1NC(=O)[C@H](CC)N(C)C(=O)C[C@@H](C(=O)N(C)C)N(C)C(=O)[C@H](C2CCCC2)N(C)C(=O)C2(CC(C)(C)C2)NC(=O)[C@@H]2C[C@H](C)CN2C(=O)[C@H](CCc2cc(F)c(C(F)(F)F)c(F)c2)NC(=O)CN(C)C(=O)[C@H](Cc2ccc(C)cc2)N2CC/C=C\C[C@@H](C2=O)N(C)C(=O)CN(C)C1=O ... 8.85

====

# assayed target: GDP-bound KRAS wild-type protein (Homo sapiens, UniProt P01116)
# Sequence (P01116 1-188 isoform P01116-2): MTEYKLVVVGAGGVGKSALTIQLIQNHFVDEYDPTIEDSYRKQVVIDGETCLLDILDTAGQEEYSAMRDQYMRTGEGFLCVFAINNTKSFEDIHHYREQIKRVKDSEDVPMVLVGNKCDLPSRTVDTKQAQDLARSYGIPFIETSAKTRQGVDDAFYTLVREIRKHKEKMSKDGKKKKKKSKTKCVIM
# protocol notes: Binding to KRAS by surface plasmon resonance (SPR), dissociation constant KD
# test parameters: 1:1 binding model
Where a SMILES comes first, the peptide text is derived from it. Bridges are numbered along the chain shown (N, C = ends). [ ]: non-standard residue; d: D form. The star is where a group is joined. hPhe(3-Cl-4-CF3) = N[C@@H](CCc1ccc(C(F)(F)F)c(Cl)c1)C(=O)O; NPrPhe(4-CF3) = CCCN[C@@H](Cc1ccc(C(F)(F)F)cc1)C(=O)O; NMeGly(cPent) = CN[C@H](C(=O)O)C1CCCC1; Pro(4,4-F2) = O=C(O)[C@@H]1CC(F)(F)CN1; NMeL = CN[C@@H](CC(C)C)C(=O)O; Morpholide = C1CN(*)CCO1; Aze = O=C(O)[C@@H]1CCN1; Ac4c = NC1(C(=O)O)CCC1; Sar = CNCC(=O)O
recorded endpoint: Kd (nM)

CCCN1C(=O)CN(C)C(=O)[C@@H]2CCN2C(=O)[C@H]([C@@H](C)CC)NC(=O)[C@H](CC(C)C)N(C)C(=O)C[C@@H](C(=O)N2CCOCC2)NC(=O)[C@H](C2CCCC2)N(C)C(=O)C2(CCC2)NC(=O)[C@@H]2CC(F)(F)CN2C(=O)[C@H](CCc2ccc(C(F)(F)F)c(Cl)c2)NC(=O)CN(C)C(=O)[C@@H]1Cc1ccc(C(F)(F)F)cc1 [PP0340] ([NMeL]I[Aze][Sar][NPrPhe(4-CF3)][Sar][hPhe(3-Cl-4-CF3)][Pro(4,4-F2)][Ac4c][NMeGly(cPent)]D-Morpholide; lactam N-11) ... 3.7
CCC[C@H]1C(=O)N[C@@H]([C@@H](C)CC)C(=O)N(C)CC(=O)N(C)[C@H]2C/C=C\CCN(C2=O)[C@@H](CC2CCC(F)(F)CC2)C(=O)N(C)CC(=O)N[C@@H](CCc2ccc(C(F)(F)F)c(Cl)c2)C(=O)N2C[C@H](OCC)C[C@H]2C(=O)NC2(CC(C)(C)C2)C(=O)N(C)[C@@H](C(CC)CC)C(=O)N(C)[C@H](C(=O)N(C)C)CC(=O)N1C ... 0.67
CCC[C@H]1C(=O)N[C@@H](C2CCCC2)C(=O)N(C)CC(=O)N(C)[C@H]2C/C=C\CCN(C2=O)[C@@H](Cc2ccc(C)cc2)C(=O)N(C)CC(=O)N[C@@H](CCc2ccc(C(F)(F)F)c(OC)c2)C(=O)N2CC3(CC3)C[C@H]2C(=O)NC2(CC(C)(C)C2)C(=O)N(C)[C@@H](C2CCCC2)C(=O)N(C)[C@H](C(=O)N(C)C)CC(=O)N1C ... 0.21

Reference source: patent EP4603105A1
